Entries and their IC50
# Assay Target: Glycogen synthase kinase-3 (Sus scrofa, UniProt B2LUN4+I6LNT8)
# Run Description: Inhibition of pig brain GSK3alpha/beta after 30 mins by scintillation counting

Compound	Assay Target	IC50
CCCCc1c(-c2ccc(O)c(-c3cn(CCOCCOCCN)nn3)c2)n(C)c2nccnc12	Glycogen synthase kinase-3 (Sus scrofa, UniProt B2LUN4+I6LNT8)	> 10 µM
CCCCc1c(-c2ccc(O)c(-c3cn(CCOCCOCCN)nn3)c2)[nH]c2nccnc12	Glycogen synthase kinase-3 (Sus scrofa, UniProt B2LUN4+I6LNT8)	5.8 µM
CCCCc1c(-c2ccc(OCCOCCOCCN)cc2)[nH]c2nccnc12	Glycogen synthase kinase-3 (Sus scrofa, UniProt B2LUN4+I6LNT8)	0.34 µM
CCCCc1c(-c2ccc(OCCOCCOCCN)cc2)n(C)c2nccnc12	Glycogen synthase kinase-3 (Sus scrofa, UniProt B2LUN4+I6LNT8)	45 µM
CCCCc1c(-c2ccc(O)cc2)n(C)c2nccnc12 [N-METHYL-ALOISINE A]	Glycogen synthase kinase-3 (Sus scrofa, UniProt B2LUN4+I6LNT8)	> 200 µM

--- query ---
Prompt line: Determine its reported IC50: CCCCc1c(-c2ccc(O)cc2)[nH]c2nccnc12 [ALOISINE A]
Response line: 0.65 µM
